Assay: Pharmacokinetic analysis of N-89 in mice after single po or iv administration
Assay type: in vivo, ICR mice
Details: ICR, mouse, plasma, iv, 30 mg/kg
RECORDED_ENDPOINT: AUC(0-inf) (ng·h/mL)
Write the number in ng·h/mL without appending the unit.

// recorded AUC(0-inf) for C1CCCCCC2(CCCCC1)OOCCCOO2 [N-89, 1,2,6,7-tetraoxaspiro[7.11]nonadecane] : 13600

---

Test: Pharmacokinetic analysis of N-89 in mice after single po or iv administration
Type: in vivo, ICR mice
Details: ICR, mouse, plasma, iv, 30 mg/kg
RECORDED_ENDPOINT: Vd (L/kg)
Write the number in L/kg without appending the unit.

// recorded Vd for C1CCCCCC2(CCCCC1)OOCCCOO2 [N-89, 1,2,6,7-tetraoxaspiro[7.11]nonadecane] : 0.53

---

Test: Pharmacokinetic analysis of N-89 in mice after single po or iv administration
Assay type: in vivo, ICR mice
Conditions: ICR, mouse, plasma, iv, 30 mg/kg
RECORDED_ENDPOINT: clearance (mL/min/kg)
Write the number in mL/min/kg without appending the unit.

// recorded clearance for C1CCCCCC2(CCCCC1)OOCCCOO2 [N-89, 1,2,6,7-tetraoxaspiro[7.11]nonadecane] : 36.8

---

Assay: Pharmacokinetic analysis of N-89 in mice after single po or iv administration
Type: in vivo, ICR mice
Conditions: ICR, mouse, plasma, po, 75 mg/kg
RECORDED_ENDPOINT: Tmax (min)
Write the number in min without appending the unit.

// recorded Tmax for C1CCCCCC2(CCCCC1)OOCCCOO2 [N-89, 1,2,6,7-tetraoxaspiro[7.11]nonadecane] : 45

---

Assay: Pharmacokinetic analysis of N-89 in mice after single po or iv administration
Type: in vivo, ICR mice
Settings: ICR, mouse, plasma, po, 75 mg/kg
RECORDED_ENDPOINT: half-life (min)
Write the number in min without appending the unit.

// recorded half-life for C1CCCCCC2(CCCCC1)OOCCCOO2 [N-89, 1,2,6,7-tetraoxaspiro[7.11]nonadecane] : 58.2

---

Assay: Pharmacokinetic analysis of N-89 in mice after single po or iv administration
Format: in vivo, ICR mice
Conditions: ICR, mouse, plasma, po, 75 mg/kg
RECORDED_ENDPOINT: MRT (h)
Write the number in h without appending the unit.

// recorded MRT for C1CCCCCC2(CCCCC1)OOCCCOO2 [N-89, 1,2,6,7-tetraoxaspiro[7.11]nonadecane] : 1.79

---

Test: Pharmacokinetic analysis of N-89 in mice after single po or iv administration
Assay type: in vivo, ICR mice
Conditions: ICR, mouse, plasma, po, 75 mg/kg
RECORDED_ENDPOINT: concentration at 8 h (ng/mL)
Write the number in ng/mL without appending the unit.

// recorded concentration at 8 h for C1CCCCCC2(CCCCC1)OOCCCOO2 [N-89, 1,2,6,7-tetraoxaspiro[7.11]nonadecane] : 8.1

---

Test: Pharmacokinetic analysis of N-89 in mice after single po or iv administration
Format: in vivo, ICR mice
Details: ICR, mouse, plasma, po, 75 mg/kg
RECORDED_ENDPOINT: AUC(0-t)
# do not omit the unit; it follows the number

// recorded AUC(0-t) for C1CCCCCC2(CCCCC1)OOCCCOO2 [N-89, 1,2,6,7-tetraoxaspiro[7.11]nonadecane] : 2370 ng·h/mL

---

Test: Pharmacokinetic analysis of N-89 in mice after single po or iv administration
Assay type: in vivo, ICR mice
Settings: ICR, mouse, plasma, iv, 30 mg/kg
RECORDED_ENDPOINT: half-life (h)
Write the number in h without appending the unit.

// recorded half-life for C1CCCCCC2(CCCCC1)OOCCCOO2 [N-89, 1,2,6,7-tetraoxaspiro[7.11]nonadecane] : 1.5

---

Test: Pharmacokinetic analysis of N-89 in mice after single po or iv administration
Assay type: in vivo, ICR mice
Conditions: ICR, mouse, plasma, iv, 30 mg/kg
RECORDED_ENDPOINT: AUC(0-t) (ng·h/mL)
Write the number in ng·h/mL without appending the unit.

// recorded AUC(0-t) for C1CCCCCC2(CCCCC1)OOCCCOO2 [N-89, 1,2,6,7-tetraoxaspiro[7.11]nonadecane] : 13600

---

Assay: Pharmacokinetic analysis of N-89 in mice after single po or iv administration
Assay type: in vivo, ICR mice
Conditions: ICR, mouse, plasma, po, 75 mg/kg
RECORDED_ENDPOINT: Cmax (ng/mL)
Write the number in ng/mL without appending the unit.

// recorded Cmax for C1CCCCCC2(CCCCC1)OOCCCOO2 [N-89, 1,2,6,7-tetraoxaspiro[7.11]nonadecane] : 1590
